Biological target: EntE (Escherichia coli)
Sequence (P10378 whole entry): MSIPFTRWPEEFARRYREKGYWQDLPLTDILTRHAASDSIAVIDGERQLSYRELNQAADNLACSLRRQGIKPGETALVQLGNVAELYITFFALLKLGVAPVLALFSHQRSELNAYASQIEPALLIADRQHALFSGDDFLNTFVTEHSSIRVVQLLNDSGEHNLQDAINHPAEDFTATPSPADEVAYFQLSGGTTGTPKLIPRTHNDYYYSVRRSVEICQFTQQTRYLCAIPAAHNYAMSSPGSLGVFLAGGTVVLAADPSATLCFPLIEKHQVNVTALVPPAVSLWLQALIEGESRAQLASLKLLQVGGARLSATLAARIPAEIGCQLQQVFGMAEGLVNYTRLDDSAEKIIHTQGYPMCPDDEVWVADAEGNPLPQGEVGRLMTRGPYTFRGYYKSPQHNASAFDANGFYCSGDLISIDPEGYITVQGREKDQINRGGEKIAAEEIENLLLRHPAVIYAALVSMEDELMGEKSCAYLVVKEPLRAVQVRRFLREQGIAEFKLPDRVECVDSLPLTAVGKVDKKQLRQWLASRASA
Experiment: ITC of DHB binding to free EntE
Readout: Kd (µM)

INSERT INTO results (compound, measured_number) VALUES
  ('O=C(O)c1cccc(O)c1O [DHB, 2,3-dihydroxybenzoic acid]', 8.7);

----------
Target: EntE (Escherichia coli)
Assay: ITC of Sal-AMS and DHB-AMS with EntE
Format: binding
Conditions: KA, displacement ITC with 200 mM salicylic acid; 293 K, pH 8.0
pKd: −log10 of the molar value.
Readout: pKd

INSERT INTO measurements (molecule, measured_number) VALUES
  ('Nc1ncnc2c1ncn2[C@@H]1O[C@H](COS(=O)(=O)NC(=O)c2cccc(O)c2O)[C@@H](O)[C@H]1O [DHB-AMS]', 11.20);

Source of measurements: paper PMC2860672
